Assay protocol: Standard protocol for determination of kcat and KM (continuous spectrophotometric assay, Acetyl CoA hydrolysis at 235 nm)
Format: biochemical
Setup conditions: purified protein; about 23° C.; pH 6.8; 0.2 mM acetyl CoA; glyphosate 0.125 to 10 mM
Value kind: Km (µM)

SEQ ID NO: 360: GAT polypeptide (protein, 3B_12D10, GAT polypeptide) MIEVKPINAEDTYEIRHRILRPNQPLEACMYETDLLGGAFHLGGYYRGKLISIASFHPAEHSELEGQKQYQLRGMATLEGYREQKAGSTLIRHAEELLRKKGADLLWCNARISASGYYEKLGFSEQGEVYDIPPIGPHILMYKKLT; 900
SEQ ID NO: 328: GAT polypeptide (protein, 15_11H3, GAT polypeptide) MIEVKPINAEDTYEIRHRILRPNQPLEACKYETDLLRGAFHLGGYYRGKLISIASFHQAEHPELEGQKQYQLRGMATLEGYREQKAGSTLIRHAEALLRKKGADLLWCNARTSASGYYKKLGFSEQGEVYDIPPTGPHILMYKKLT; 1000
SEQ ID NO: 268: GAT polypeptide (protein, CHIMERA, GAT polypeptide) MIEVKPINAEDTYEIRHRILRPNQPLEACMYETDLLRGAFHLGGYYRGKLISIASFHQAEHSELEGQKQYQLRGMATLEGYREQKAGSTLIRHAEELLRKKGADLLWCNARTSASGYYKKLGFSEQGEVYDTPPVGPHILMYKKLT; 1300
